tested on: SARS-CoV; assay: Inhibition of SARS coronavirus-induced cytopathogenicity in Vero E6 cells at 10 uM; type: functional; settings: Severe acute respiratory syndrome-related coronavirus
Catalogue of inhibition at 10 µM values
readout-label: inhibition at 10 µM (%)

compound: C[C@@H]1CC[C@H]2[C@@](C)(CO)[C@H]3C[C@@]12CC[C@@]3(C)O
test-result: 25

compound: C=C[C@@]1(C)CC(=O)[C@]2(O)[C@@]3(C)[C@@H](O)CCC(C)(C)[C@@H]3[C@H](O)[C@H](OC(C)=O)[C@@]2(C)O1
test-result: 25

compound: O=C(Nc1ccc([N+](=O)[O-])cc1Cl)c1cc(Cl)ccc1O [NICLOSAMIDE]
test-result: 25
